- Tested on: UACC-62 melanoma
- experimental_details: NCI tumour cell line growth inhibition, 48 h
Listed here are compounds together with their documented TGI.

{"compound": "O=C(CC(NC(=O)OCc1ccccc1)C(=O)NC1Cc2ccccc2C1=O)OCc1ccccc1 (stereo unspecified)", "TGI": "> 100 µM"}
{"compound": "Cc1cc(N(CCC#N)CCC#N)ccc1/C=C(\\NC(=O)/C=C/c1ccccc1)C(=O)N=[N+]=[N-]", "TGI": "> 100 µM"}
{"compound": "Cc1ccc(S(=O)(=O)NNC(=O)Nc2cccc(C(F)(F)F)c2)cc1", "TGI": "> 100 µM"}
{"compound": "Clc1ccc(OCC2NC3CCC2CC3)cn1 (stereo unspecified)", "TGI": "39.3 µM"}
{"compound": "O=c1[nH]c2ccccc2n1C1CCNCC1", "TGI": "> 100 µM"}
{"compound": "CN(C)c1cccc(-c2cc(=S)c3cc4c(cc3[nH]2)OCO4)c1", "TGI": "> 100 µM"}
{"compound": "COc1ccc2c(c1)[C@@H](NC(C)=O)CCc1cc(OC)c(OC)c(OC)c1-2", "TGI": "> 26.8 µM"}
{"compound": "O=C(O)/C=C/c1ccc(O)c(O)c1", "TGI": "> 100 µM"}
{"compound": "COc1ccc(-c2nc3sc(-c4cc(OC)c(OC)c(OC)c4)nn3c2/C=C2/C(=O)Nc3ccc(F)cc32)cc1", "TGI": "33.4 µM"}
{"compound": "O=c1[nH]c(=S)[nH]cc1CN1CCOCC1", "TGI": "> 100 µM"}
{"compound": "Cc1ccc(S(=O)c2ccccc2[N+](=O)[O-])cc1 (stereo unspecified)", "TGI": "> 100 µM"}
{"compound": "C=C1c2nc3ccccc3n2C=C(c2ccc(OC)cc2)N1c1ccc(OCCN2CCCCC2)cc1", "TGI": "> 100 µM"}
{"compound": "O=c1c2ccccc2nc(-c2cccc([N+](=O)[O-])c2)n1O", "TGI": "> 100 µM"}
{"compound": "CC1(C)N=C(N)N=C(N)N1c1ccc(OCCCNC(=O)Nc2ccc(S(=O)(=O)F)cc2)c(Cl)c1", "TGI": "> 100 µM"}
{"compound": "C=CC(=O)NCCC(=O)OCn1cc(F)c(=O)[nH]c1=O", "TGI": "> 100 µM"}
{"compound": "CCNC1=C(NC(=O)c2ccc(F)cc2)C(=O)c2ccccc2C1=O", "TGI": "> 100 µM"}
{"compound": "COc1cc2nc(-c3cccs3)nc(Nc3cccc([N+](=O)[O-])c3)c2cc1OC", "TGI": "31.1 µM"}
{"compound": "COc1cccc2c1C(=O)c1c(O)c3c(c(O)c1C2=O)C[C@@](O)(C(=O)CO)CC3OC1CC(N(C)CCOCC(OC(C)=O)OC(C)=O)C(O)C(C)O1 (stereo partly specified)", "TGI": "> 0.01 µM"}
{"compound": "C=CC1(C)CCC2C(=CCC3C2(C)CC(O)C(O)C3(C)COC2OC(CO)C(O)C(O)C2O)C1 (stereo unspecified)", "TGI": "> 100 µM"}
{"compound": "Nc1ccc(/C=C/c2ccc3ncccc3c2)cc1", "TGI": "> 100 µM"}
{"compound": "COc1ccc(C2COc3c(ccc(OC)c3OC)C2=O)cc1OC (stereo unspecified)", "TGI": "> 100 µM"}
